This collection of values is drawn from ChEMBL document CHEMBL1921668.

test-target: Phosphatidylinositol 4,5-bisphosphate 3-kinase catalytic subunit beta isoform (Homo sapiens, UniProt P42338)
Sequence (P42338 whole entry, canonical isoform): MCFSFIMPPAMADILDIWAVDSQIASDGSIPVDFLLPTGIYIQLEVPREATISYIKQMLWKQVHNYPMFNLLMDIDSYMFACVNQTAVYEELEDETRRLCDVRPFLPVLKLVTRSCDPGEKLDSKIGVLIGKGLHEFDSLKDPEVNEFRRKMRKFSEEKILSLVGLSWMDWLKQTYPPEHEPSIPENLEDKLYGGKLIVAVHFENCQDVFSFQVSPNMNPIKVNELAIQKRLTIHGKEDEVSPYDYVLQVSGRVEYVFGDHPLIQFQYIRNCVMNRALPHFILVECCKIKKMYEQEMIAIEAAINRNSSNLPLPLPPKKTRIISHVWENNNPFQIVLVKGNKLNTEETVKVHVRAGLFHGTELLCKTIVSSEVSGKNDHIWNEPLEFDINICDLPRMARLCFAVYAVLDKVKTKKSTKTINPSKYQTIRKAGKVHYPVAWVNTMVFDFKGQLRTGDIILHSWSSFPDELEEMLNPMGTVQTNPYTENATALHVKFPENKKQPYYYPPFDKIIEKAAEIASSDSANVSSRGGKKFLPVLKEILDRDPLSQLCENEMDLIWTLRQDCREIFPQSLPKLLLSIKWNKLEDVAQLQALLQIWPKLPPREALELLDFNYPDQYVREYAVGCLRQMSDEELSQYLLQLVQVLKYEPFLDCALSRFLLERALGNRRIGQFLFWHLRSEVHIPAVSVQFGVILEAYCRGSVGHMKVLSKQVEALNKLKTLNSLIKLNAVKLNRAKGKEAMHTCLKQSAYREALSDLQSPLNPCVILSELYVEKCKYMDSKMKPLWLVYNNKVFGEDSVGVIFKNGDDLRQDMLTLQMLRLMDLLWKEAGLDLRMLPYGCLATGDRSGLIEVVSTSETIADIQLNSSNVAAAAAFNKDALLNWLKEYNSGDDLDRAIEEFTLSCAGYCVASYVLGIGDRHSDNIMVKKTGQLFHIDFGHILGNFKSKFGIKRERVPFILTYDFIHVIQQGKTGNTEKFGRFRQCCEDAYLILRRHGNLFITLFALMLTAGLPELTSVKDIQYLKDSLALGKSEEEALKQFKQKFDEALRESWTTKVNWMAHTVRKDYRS
experimental-protocol: Binding affinity to PI3Kbeta
pKd: −log10 of the molar value.
quantity-kind: pKd

Below: 4 molecules and their reported pKd.
>>> test_value("COc1ccc(S(=O)(=O)Nc2cncc(-c3cnc(N)nc3)c2)cc1")
6.30
>>> test_value("Nc1ncc(-c2cncc(NS(=O)(=O)c3ccc([N+](=O)[O-])cc3)c2)cn1")
6.26
>>> test_value("Cc1ccc(S(=O)(=O)Nc2cncc(-c3cnc(N)nc3)c2)cc1")
7.00
>>> test_value("Nc1ncc(-c2cncc(NS(=O)(=O)c3ccc(F)cc3F)c2)cn1")
6.66

a. Cc1ccc(S(=O)(=O)Nc2cncc(-c3cnc(N)nc3)c2)cc1[N+](=O)[O-]
b. CS(=O)(=O)Nc1cncc(-c2cnc(N)nc2)c1
c. Nc1ncc(-c2cncc(NS(=O)(=O)c3cccc(C(F)(F)F)c3)c2)cn1
stdin: Returns the items ordered by pKd, from maximum to minimum. Output the labels ranked as instructed.
stdout: a, c, b
(a: 6.60, c: 6.37, b: 5.28)
